FYI, the data here is from ChEMBL document CHEMBL4513216.

TEST DETAILS: Toxicity liver stage against HepG2, at 10uM
Assay type: cell-based
Set-up: test concentration 10 uM, cell line HepG2-A16-CD81EGFP
STATED CONDITIONS: human, HepG2-A16-CD81EGFP cells; read-out: INHIBITION
The entries below come with measured cytotoxicity at 10 µM values attached.
EXPERIMENTAL READOUT: cytotoxicity at 10 µM

CN(C)C(=O)NCc1nnc2n1CCN(Cc1cccs1)C2
-150%
CC(C)(C)c1csc(CNC(=O)C2NCCc3[nH]cnc32)n1 (centres undefined)
-2.65%
Cc1ccc(-c2ncc(C(=O)NCCNC(=O)C3CC3)s2)c(C)c1
-23.8%
CN(CCO)C[C@@H]1CN(C(=O)c2cccc(OC(F)F)c2)C[C@@H]1CO
-0.185%
CC(=O)c1c(F)cccc1NCC(O)C(C)(C)C (centres undefined)
18.7%
COCCCN1C(=O)c2ccc(C(=O)NCCc3c[nH]cn3)cc2C1=O
-3.76%
COCC(=O)NCc1nn(CCN2CCCC2)c(=O)c2ccccc12
-18.9%
FC1(F)CCN(Cc2cccnc2)CC12CCN(c1cnccn1)C2 (centres undefined)
2.6%
COCC1CN(S(=O)(=O)c2cccs2)Cc2ncnn2C1 (centres undefined)
-120%
Cc1cnc(N2CCC[C@@H]3CN(S(C)(=O)=O)C[C@@H]32)nc1
9.34%
CCOc1cccc(CNC(=O)NC2CC=CC2)c1OC(F)F
-49.1%
O=C1CSC(c2ccncc2)c2c(n(C3CCOCC3)[nH]c2=O)N1 (centres undefined)
-19.4%
CS(=O)(=O)C1=C(O)C(=O)N(c2ccccc2)C1c1ccccc1 (centres undefined)
-1.06%
Cc1nnc2n1CCN(C(=O)c1cn(-c3ccc(F)cc3)nn1)C2
-149%
CC1CN(C)CCN1C(=O)c1ccn(-c2ccccc2)n1 (centres undefined)
0.533%
COCC1c2nnn(C)c2CCN1C(=O)Cc1ccccn1 (centres undefined)
-97.1%
CC(C)C(=O)NCCNC(=O)C12CCC(=O)N1c1cc(Cl)ccc1S2 (centres undefined)
15.3%
CC(C)N(C(=O)CCc1cccc(F)c1)C1CCOCC1
-5.21%
Cc1nc(-c2ccsc2)ccc1C(=O)O
-13.8%
N#CCCN(Cc1cccnc1)C(=O)c1cc(Cl)c[nH]1
-18.4%
CN1CCNC(Cc2ccc(-c3ccccc3)cc2)C1=O (centres undefined)
-41.9%
Cc1cc(C)n(CC2CN(c3ccc(C#N)cn3)CCO2)n1 (centres undefined)
-1.56%
O=C(O)c1cccnc1CN1CCCCC1CCc1ccccn1 (centres undefined)
7.4%
Cc1ccccc1OC1CCN(C(=O)c2c[nH]c(=O)[nH]c2=O)CC1
5.25%
